Data credit: patent US12364709B2

experiment: 5 day repeat oral dosing PK of AMXT 1501 dicaprate
Type: in vivo, beagle dogs
experimental.conditions: both sexes, beagle, dog, plasma, oral, Day 5, animals where it could be estimated; read-out: mean Day 5 t1/2 values, range across groups
Procedure: The pharmacokinetic (PK) profiles after dosing on Days 1 and 5 were evaluated using standard noncompartmental methods. The following experimental design was used. […] Plasma samples were analyzed for AMXT 1501 concentration via a liquid chromatography/mass spectrometry (LC/MS-MS) procedure and the resulting concentration versus time data were used to estimate individual animal PK parameters using noncompartmental analysis (NCA).
assay.metric: half-life at 5 days

// lookup half-life at 5 days for CCCCCCCCCCCCCCCC(=O)NCCCC[C@@H](N)C(=O)NCCCNCCCCNCCCN [AMXT 1501 dicaprate]
8.69 to 20.8 h

---

experiment: 5 day repeat oral dosing PK of AMXT 1501 dicaprate
Type: in vivo, beagle dogs
experimental.conditions: both sexes, beagle, dog, plasma, po, 16 mg/kg, 16 mg/kg PO, Day 1, group mean; read-out: Tmax Mean
assay.metric: Tmax (h)
Please give a number only; it is taken to be in h.

Requested field: Tmax. Item: CCCCCCCCCCCCCCCC(=O)NCCCC[C@@H](N)C(=O)NCCCNCCCCNCCCN [AMXT 1501 dicaprate]
5.33

---

experiment: 28-day repeat-dose toxicity study, toxicokinetics of AMXT 1501 dicaprate
Format: in vivo, beagle dogs
experimental.conditions: both sexes, beagle, dog, plasma, po, 8 mg/kg/day, 8 mg/kg/day PO, DFMO 0, Day 28, M+F combined; read-out: AUC0-t Median
Method: AMXT 1501 PK parameters were calculated for all AMXT 1501 dicaprate-dosed animals for the first dose (Day 1) and last dose (Day 28).
assay.metric: AUC(0-t)

Given the compound CCCCCCCCCCCCCCCC(=O)NCCCC[C@@H](N)C(=O)NCCCNCCCCNCCCN [AMXT 1501 dicaprate] , what is its reported AUC(0-t)?
1900 ng·h/mL

---

experiment: 5 day repeat oral dosing PK of AMXT 1501 dicaprate
Type: in vivo, beagle dogs
experimental.conditions: both sexes, beagle, dog, plasma, po, 8 mg/kg, 8 mg/kg PO, Day 1, group mean; read-out: t1/2 Mean (converted)
assay.metric: half-life (h)
Enter your answer as a number in h; do not include the unit.

Suppose we examine the compound CCCCCCCCCCCCCCCC(=O)NCCCC[C@@H](N)C(=O)NCCCNCCCCNCCCN [AMXT 1501 dicaprate] ; what half-life value has been reported?
9.3

---

experiment: 28-day repeat-dose toxicity study, toxicokinetics of AMXT 1501 dicaprate
Format: in vivo, beagle dogs
experimental.conditions: both sexes, beagle, dog, plasma, po, 16 mg/kg/day, 16 mg/kg/day PO, DFMO 50 mg/kg/day, Day 28, M+F combined; read-out: Cmax Median
assay.metric: Cmax (ng/mL)
# unit: ng/mL | format: bare number

Requested read-out: Cmax. Entry: CCCCCCCCCCCCCCCC(=O)NCCCC[C@@H](N)C(=O)NCCCNCCCCNCCCN [AMXT 1501 dicaprate]
213

---

experiment: 5 day repeat oral dosing PK of AMXT 1501 dicaprate
Assay type: in vivo, beagle dogs
experimental.conditions: both sexes, beagle, dog, plasma, po, 32 mg/kg, 32 mg/kg PO once daily, Day 5, group mean; read-out: Cmax Mean
assay.metric: Cmax (ng/mL)
# number only, unit ng/mL dropped from output

Consider the compound CCCCCCCCCCCCCCCC(=O)NCCCC[C@@H](N)C(=O)NCCCNCCCCNCCCN [AMXT 1501 dicaprate] and give its measured Cmax.
837

---

experiment: 28-day repeat-dose toxicity study, toxicokinetics of AMXT 1501 dicaprate
Format: in vivo, beagle dogs
experimental.conditions: both sexes, beagle, dog, plasma, po, 8 mg/kg/day, 8 mg/kg/day PO, DFMO 0, Day 28, M+F combined; read-out: t1/2 Mean (converted)
Experimental: AMXT 1501 PK parameters were calculated for all AMXT 1501 dicaprate-dosed animals for the first dose (Day 1) and last dose (Day 28).
assay.metric: half-life

Entry under review: CCCCCCCCCCCCCCCC(=O)NCCCC[C@@H](N)C(=O)NCCCNCCCCNCCCN [AMXT 1501 dicaprate] . Reported half-life?
19.7 h

---

experiment: 5 day repeat oral dosing PK of AMXT 1501 dicaprate
Format: in vivo, beagle dogs
experimental.conditions: both sexes, beagle, dog, plasma, po, 32 mg/kg, 32 mg/kg PO, Day 1, group mean; read-out: Cmax Mean
assay.metric: Cmax (ng/mL)
All answers are understood in ng/mL, so give the number only.

Return reported Cmax; argument: CCCCCCCCCCCCCCCC(=O)NCCCC[C@@H](N)C(=O)NCCCNCCCCNCCCN [AMXT 1501 dicaprate]
447

---

experiment: 28-day repeat-dose toxicity study, toxicokinetics of AMXT 1501 dicaprate
Assay type: in vivo, beagle dogs
experimental.conditions: both sexes, beagle, dog, plasma, po, 16 mg/kg/day, 16 mg/kg/day PO, DFMO 0, Day 28, M+F combined; read-out: AUC0-∞ Median
assay.metric: AUC(0-inf) (µg·h/mL)
Value expressed in µg·h/mL; do not type the unit.

Which AUC(0-inf) value belongs to CCCCCCCCCCCCCCCC(=O)NCCCC[C@@H](N)C(=O)NCCCNCCCCNCCCN [AMXT 1501 dicaprate] ?
8.28

---

experiment: 5 day repeat oral dosing PK of AMXT 1501 dicaprate
Format: in vivo, beagle dogs
experimental.conditions: both sexes, beagle, dog, plasma, po, 8 mg/kg, 8 mg/kg PO once daily, Day 5, group mean; read-out: t1/2 Mean (converted)
assay.metric: half-life (h)
Note: unit h is implicit; provide only the numeric part.

Could you tell me which half-life is on file for CCCCCCCCCCCCCCCC(=O)NCCCC[C@@H](N)C(=O)NCCCNCCCCNCCCN [AMXT 1501 dicaprate] ?
8.69

---

experiment: 28-day repeat-dose toxicity study, toxicokinetics of AMXT 1501 dicaprate
Type: in vivo, beagle dogs
experimental.conditions: both sexes, beagle, dog, plasma, po, 16 mg/kg/day, 16 mg/kg/day PO, DFMO 0, Day 1, M+F combined; read-out: AUC0-24 hr Mean
assay.metric: AUC(0-t) (ng·h/mL)
Please give a number only; it is taken to be in ng·h/mL.

# lookup: AUC(0-t) of CCCCCCCCCCCCCCCC(=O)NCCCC[C@@H](N)C(=O)NCCCNCCCCNCCCN [AMXT 1501 dicaprate]
2500

---

experiment: 5 day repeat oral dosing PK of AMXT 1501 dicaprate
Format: in vivo, beagle dogs
experimental.conditions: both sexes, beagle, dog, plasma, po, 32 mg/kg, 32 mg/kg PO, Day 1, group mean; read-out: AUC0-t Mean
assay.metric: AUC(0-t) (ng·h/mL)
Give a bare numeral; the unit ng·h/mL is implied.

Recorded AUC(0-t) for CCCCCCCCCCCCCCCC(=O)NCCCC[C@@H](N)C(=O)NCCCNCCCCNCCCN [AMXT 1501 dicaprate] , please?
5660

---

experiment: 5 day repeat oral dosing PK of AMXT 1501 dicaprate
Type: in vivo, beagle dogs
experimental.conditions: both sexes, beagle, dog, plasma, po, 16 mg/kg, 16 mg/kg PO once daily, Day 5, group mean; read-out: Cmax Mean
Method: The pharmacokinetic (PK) profiles after dosing on Days 1 and 5 were evaluated using standard noncompartmental methods. The following experimental design was used. […] Plasma samples were analyzed for AMXT 1501 concentration via a liquid chromatography/mass spectrometry (LC/MS-MS) procedure and the resulting concentration versus time data were used to estimate individual animal PK parameters using noncompartmental analysis (NCA).
assay.metric: Cmax (ng/mL)
Give your result in ng/mL as a bare value.

Recorded Cmax of CCCCCCCCCCCCCCCC(=O)NCCCC[C@@H](N)C(=O)NCCCNCCCCNCCCN [AMXT 1501 dicaprate] , please.
564

---

experiment: 5 day repeat oral dosing PK of AMXT 1501 dicaprate
Assay type: in vivo, beagle dogs
experimental.conditions: both sexes, beagle, dog, plasma, po, 8 mg/kg, 8 mg/kg PO once daily, Day 5, group mean; read-out: Cmax Mean
assay.metric: Cmax (ng/mL)
Your answer is read as ng/mL, so omit the unit and give the number.

Name the reported Cmax value associated with the molecule CCCCCCCCCCCCCCCC(=O)NCCCC[C@@H](N)C(=O)NCCCNCCCCNCCCN [AMXT 1501 dicaprate]
340

---

experiment: 28-day repeat-dose toxicity study, toxicokinetics of AMXT 1501 dicaprate
Assay type: in vivo, beagle dogs
experimental.conditions: both sexes, beagle, dog, plasma, po, 32 mg/kg/day, 32 mg/kg/day PO, DFMO 0, Day 1, M+F combined; read-out: Cmax Median
Description: AMXT 1501 PK parameters were calculated for all AMXT 1501 dicaprate-dosed animals for the first dose (Day 1) and last dose (Day 28).
assay.metric: Cmax

Need Cmax of CCCCCCCCCCCCCCCC(=O)NCCCC[C@@H](N)C(=O)NCCCNCCCCNCCCN [AMXT 1501 dicaprate] , thanks.
224 ng/mL
